EXPERIMENTAL_TARGET: HGFR (Homo sapiens, UniProt P08581)
Construct: purchased Upstate 14-526
Sequence (P08581 974-1390 limits assumed): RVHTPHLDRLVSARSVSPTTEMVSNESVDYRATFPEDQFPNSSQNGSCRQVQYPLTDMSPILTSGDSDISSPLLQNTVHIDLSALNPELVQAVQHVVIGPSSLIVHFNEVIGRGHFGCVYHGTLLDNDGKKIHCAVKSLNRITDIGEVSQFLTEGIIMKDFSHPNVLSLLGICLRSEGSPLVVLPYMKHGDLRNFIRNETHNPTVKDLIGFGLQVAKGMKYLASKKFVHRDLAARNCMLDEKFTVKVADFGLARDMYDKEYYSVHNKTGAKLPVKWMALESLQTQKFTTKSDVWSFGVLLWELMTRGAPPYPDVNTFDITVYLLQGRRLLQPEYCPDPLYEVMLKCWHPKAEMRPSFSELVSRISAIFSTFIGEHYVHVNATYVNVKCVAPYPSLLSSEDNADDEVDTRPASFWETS
PROTOCOL_DETAILS: HGFR continuous-coupled spectrophotometric assay
Format: biochemical
MEASUREMENT_CONDITIONS: at 50 nM; Table 5, library procedure 40; read-out: % inhibition (percent c-MET inhibition)
ASSAY_READOUT: inhibition at 0.05 µM (%)
Number only, in %; omit the unit.

Give the reported inhibition at 0.05 µM for this molecule. CCOCCCNC(=O)c1ccc(-c2cnc(N)c(OC(C)c3c(Cl)ccc(F)c3Cl)c2)cc1 (stereo not shown)
70

Given CC(Oc1cc(-c2ccc(C(=O)N3CCC(Cc4ccccc4)CC3)cc2)cnc1N)c1c(Cl)ccc(F)c1Cl (stereo not shown) , respond with its inhibition at 0.05 µM.
55

Supply recorded inhibition at 0.05 µM for CC(Oc1cc(-c2ccc(C(=O)NCCN(C)C)cc2)cnc1N)c1c(Cl)ccc(F)c1Cl (stereo not shown) here.
85

Identify the reported inhibition at 0.05 µM for the following entry. CC(Oc1cc(-c2ccc(C(=O)N3CCN(c4ccncc4)CC3)cc2)cnc1N)c1c(Cl)ccc(F)c1Cl (stereo not shown)
96

Supply inhibition at 0.05 µM value. Item: COC1CCN(C(=O)c2ccc(-c3cnc(N)c(OC(C)c4c(Cl)ccc(F)c4Cl)c3)cc2)CC1 (stereo not shown)
79

Return the recorded inhibition at 0.05 µM value; entry: COC(=O)CN(C)C(=O)c1ccc(-c2cnc(N)c(OC(C)c3c(Cl)ccc(F)c3Cl)c2)cc1 (stereo not shown)
77

Supply reported inhibition at 0.05 µM belonging to this molecule: CCCNC(=O)c1ccc(-c2cnc(N)c(OC(C)c3c(Cl)ccc(F)c3Cl)c2)cc1 (stereo not shown)
73

---

EXPERIMENTAL_TARGET: HGFR (Homo sapiens, UniProt P08581)
Construct: purchased Upstate 14-526
PROTOCOL_DETAILS: HGFR continuous-coupled spectrophotometric assay
Assay type: biochemical
MEASUREMENT_CONDITIONS: at 1 pM; Table 6, library procedure 41; read-out: % Inhibition (percent c-MET inhibition)
Hi, to clarify the labels: Satisfied covers inhibition at 1 pM from 30% upward, Not satisfied covers anything below 30%.

Is it the case that Nc1ncc(C(=O)NC2CCCNC2=O)cc1OCc1c(Cl)cccc1Cl [Example L-293] has inhibition at 1 pM reaching or exceeding 30%?
Not satisfied

Can Nc1ncc(C(=O)N[C@@H]2c3ccccc3C[C@@H]2O)cc1OCc1c(Cl)cccc1Cl [Example L-230] be said to have inhibition at 1 pM at or above 30%?
Not satisfied

# check: inhibition at 1 pM of CCc1ccc(COCC2CCN(C(=O)c3cnc(N)c(OCc4c(Cl)cccc4Cl)c3)CC2)nc1 [Example L-344] is greater than or equal to 30%
Satisfied

Check the entry CC(=O)NCCNC(=O)c1cnc(N)c(OCc2c(Cl)cccc2Cl)c1 [Example L-190] : does inhibition at 1 pM equal or exceed 30%?
Satisfied

Would you say Nc1ncc(C(=O)N2CCCC(F)(F)C2)cc1OCc1c(Cl)cccc1Cl [Example L-309] shows inhibition at 1 pM at minimum 30%?
Not satisfied

Answer whether inhibition at 1 pM of Nc1ncc(C(=O)N2CCC3(CC2)CC(N2CCNC(=O)C2)CO3)cc1OCc1c(Cl)cccc1Cl [Example L-318] is greater than or equal to 30%.
Not satisfied

Reported inhibition at 1 pM at or above 30%? Nc1ncc(C(=O)N2CCC(CCO)CC2)cc1OCc1c(Cl)cccc1Cl [Example L-258]
Satisfied

Determine whether this compound has inhibition at 1 pM no lower than 30%: Nc1ncc(C(=O)NCC2COc3ccccc3O2)cc1OCc1c(Cl)cccc1Cl [Example L-234]
Satisfied

Please indicate if the recorded inhibition at 1 pM for CN(CCC(O)c1ccccc1)C(=O)c1cnc(N)c(OCc2c(Cl)cccc2Cl)c1 [Example L-246] meets or exceeds 30%.
Not satisfied

Can Nc1ncc(C(=O)NCc2c(F)cccc2C(F)(F)F)cc1OCc1c(Cl)cccc1Cl [Example L-308] be said to have inhibition at 1 pM at or above 30%?
Satisfied

Determine whether this compound has inhibition at 1 pM no lower than 30%: Nc1ncc(C(=O)N2CCc3nnc(CCN4CCOCC4)n3CC2)cc1OCc1c(Cl)cccc1Cl [Example L-328]
Not satisfied

Form field: inhibition at 1 pM at least 30%? Entry: CN(C)C(=O)c1cnc(N)c(OCc2c(Cl)cccc2Cl)c1 [Example L-266]
Not satisfied

Kindly determine if inhibition at 1 pM recorded for Nc1ncc(C(=O)NCCOc2ccccc2)cc1OCc1c(Cl)cccc1Cl [Example L-242] is above or exactly 30%.
Satisfied

Item CN1CCC(N(C)C(=O)c2cnc(N)c(OCc3c(Cl)cccc3Cl)c2)C1 [Example L-225] with inhibition at 1 pM of 30% or above?
Satisfied
